Tested on: Neutrophil
Run description: Antiinflammatory activity against LPS-stimulated human neutrophils assessed as reduction in TNFalpha production incubated for 1 hr followed by LPS stimulation measured after 18 to 24 hrs by ELISA
Type: functional, cell-based
Recorded metric: IC50 (µM)
The figure you give is taken to be in µM; do not add the unit.

Supply recorded IC50 for COc1c(O)cc2oc(-c3ccc(O)c(O)c3)c(O[C@@H]3O[C@H](CO[C@@H]4O[C@H](CO)[C@@H](O)[C@H](O)[C@H]4O)[C@H](O)[C@H](O)[C@H]3O)c(=O)c2c1O here.
9.3

Supply recorded IC50 for COc1c(O)cc2oc(-c3ccc(O)c(O)c3)c(O[C@@H]3O[C@H](CO)[C@H](O)[C@H](O)[C@H]3O)c(=O)c2c1O here.
7.7

Supply recorded IC50 for COc1c(O)cc2oc(-c3ccc(O)c(O)c3)c(O[C@@H]3O[C@H](CO)[C@H](O)[C@H](O)[C@H]3O[C@@H]3OC[C@](O)(CO)[C@H]3O)c(=O)c2c1O here.
12.8

Supply recorded IC50 for COc1cc(-c2oc3cc(O)c(OC)c(O)c3c(=O)c2O[C@@H]2O[C@H](CO)[C@H](O)[C@H](O)[C@H]2O)ccc1O here.
16.3

Supply recorded IC50 for O=c1c(O)c(-c2ccc(O)c(O)c2)oc2cc(O)cc(O)c12 [QUERCETIN] here.
20.4

Supply recorded IC50 for COc1cc(/C=C/C(=O)OC[C@H]2O[C@@H](Oc3cc4oc(-c5ccc(O)c(OC)c5)c(O[C@@H]5O[C@H](CO)[C@H](O)[C@H](O)[C@H]5O)c(=O)c4c(O)c3OC)[C@H](O)[C@@H](O)[C@@H]2O)ccc1O here.
20.7

Values compiled from ChEMBL document CHEMBL4196151.
